Biological target: HCMV polymerase (Human cytomegalovirus, UniProt P08546)
Construct: made in house; host or cells: recombinant baculovirus-infected SF-9 cells
Sequence (P08546 whole entry): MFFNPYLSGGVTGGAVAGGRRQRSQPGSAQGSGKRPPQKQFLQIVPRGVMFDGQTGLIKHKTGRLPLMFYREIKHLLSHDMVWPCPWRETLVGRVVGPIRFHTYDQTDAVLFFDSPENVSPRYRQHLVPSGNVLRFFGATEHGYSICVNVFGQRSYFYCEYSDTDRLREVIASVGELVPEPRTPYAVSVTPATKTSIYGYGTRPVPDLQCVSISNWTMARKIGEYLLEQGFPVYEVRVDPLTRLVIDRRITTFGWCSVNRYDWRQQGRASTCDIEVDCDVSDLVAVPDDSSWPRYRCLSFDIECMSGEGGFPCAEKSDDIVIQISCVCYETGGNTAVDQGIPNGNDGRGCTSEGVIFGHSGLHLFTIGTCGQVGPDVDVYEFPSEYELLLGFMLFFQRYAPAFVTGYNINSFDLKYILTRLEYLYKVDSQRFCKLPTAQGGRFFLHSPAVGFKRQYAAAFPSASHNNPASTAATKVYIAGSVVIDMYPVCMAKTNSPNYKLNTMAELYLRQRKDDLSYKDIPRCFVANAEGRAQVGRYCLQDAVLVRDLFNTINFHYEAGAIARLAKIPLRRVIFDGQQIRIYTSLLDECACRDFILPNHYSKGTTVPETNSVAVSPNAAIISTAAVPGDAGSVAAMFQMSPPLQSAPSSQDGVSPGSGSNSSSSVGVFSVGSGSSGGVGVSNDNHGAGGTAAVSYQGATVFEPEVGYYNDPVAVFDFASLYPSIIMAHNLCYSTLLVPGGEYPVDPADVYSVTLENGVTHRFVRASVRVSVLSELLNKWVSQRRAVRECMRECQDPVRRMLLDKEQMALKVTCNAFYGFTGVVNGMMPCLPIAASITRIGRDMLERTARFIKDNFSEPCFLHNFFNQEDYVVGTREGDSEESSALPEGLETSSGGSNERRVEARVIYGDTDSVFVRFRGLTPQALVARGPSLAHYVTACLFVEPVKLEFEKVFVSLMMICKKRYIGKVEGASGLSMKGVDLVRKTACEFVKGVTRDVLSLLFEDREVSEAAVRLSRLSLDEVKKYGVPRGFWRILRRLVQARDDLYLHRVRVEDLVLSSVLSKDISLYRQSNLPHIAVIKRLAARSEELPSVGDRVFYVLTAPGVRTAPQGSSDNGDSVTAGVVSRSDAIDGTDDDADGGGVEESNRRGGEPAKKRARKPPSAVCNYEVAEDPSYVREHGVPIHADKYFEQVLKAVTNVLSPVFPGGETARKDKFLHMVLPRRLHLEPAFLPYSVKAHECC
Experiment: HCMV polymerase scintillation proximity assay (SPA)
Assay type: biochemical
Details: CMV polymerase
Protocol: The HCMV polymerase assay is performed using a scintillation proximity assay (SPA) as described in several references, such as N. D. Cook, et al., Pharmaceutical Manufacturing International, pages 49-53 (1992); K. Takeuchi, Laboratory Practice, September issue (1992); U.S. Pat. No. 4,568,649 (1986); which are incorporated by reference herein. Reactions are performed in 96-well plates. […] Plates are incubated 10 min. at 37 C, then equilibrated to room temperature, and counted on a Packard Topcount. […]
test.readout: IC50 (µM)

compound | IC50 [µM]
Cn1cc(C(=O)NCc2ccc(Cl)cc2)c(=O)c2cc(CN3CCOCC3)cc(C#CCC(CO)CO)c21 | 0.56
Cn1cc(C(=O)NCc2ccc(Cl)cc2)c(=O)c2cc(CN3CCOCC3)cc(C#CCN3CCS(=O)(=O)CC3)c21 | 0.36
Cn1cc(C(=O)NCc2ccc(Cl)cc2)c(=O)c2cc(CN3CCOCC3)cc(C#Cc3ccncc3)c21 | 0.42
C[C@@H](O)C#Cc1cc(CN2CCOCC2)cc2c(=O)c(C(=O)NCc3ccc(Cl)cc3)cn(C)c12 | 0.87

a = Cn1cc(C(=O)NCc2ccc(Cl)cc2)c(=O)c2cc(CN3CCOCC3)cc(C#Cc3ccccn3)c21
b = CN(CC#Cc1cc(CN2CCOCC2)cc2c(=O)c(C(=O)NCc3ccc(Cl)cc3)cn(C)c12)CC(O)CO (stereo not shown)
c = Cn1cc(C(=O)NCc2ccc(Cl)cc2)c(=O)c2cc(CN3CCOCC3)cc(C#CCn3cnc(Cl)c3Cl)c21
Prompt: Order the records so the highest IC50 appears first and the lowest last. Returns: the labels arranged in the requested order.
Completion: b, c, a
